system: SARS-CoV full length Spike protein, wild type, expressed on CHO cells (SARS-CoV, UniProt P59594 14-1255)
Kind request: treat 0.8 fold over isotype as inclusive, so median fluorescence intensity, fold over isotype control at 0.8 fold over isotype or higher is Met, anything lower is Not met.

# binder, category
data = [
    ("anti-SARS-CoV-2 antibody 851 (antibody, V domains shown) VH: QITLKESGPTLVKPTQTLTLTCTFSGFSLSTNGVGMGWIRQPPGKALEWLALIYWDDDQFYSPSLKSRLTITRDTSKNQVVLTMTNMDPVDTATYYCAQAFYESFGFYSWGQGTLVTVSS VL: NFMLTQPHSVSESPGKTVIISCTRSIGSIASNYVQWYQQRPGSAPTIVVFEDNERPSGVPDRFSGSIDRSSNSASLTISGLKTEDEADYYCQSYDGSSELVFGGGTKLTVLG", "Not met"),
    ("anti-SARS-CoV-2 antibody 1538 (antibody, V domains shown) VH: EVQLLESGGGLVQPGGSLRLSCAASGFTFSSYAMSWVRQAPGKGLEWVSGISDSGGSTYYADYVKGRFTISRDNSKDTLYLQMNSLRAEDTAVYYCAKDRGNEYALTHYYYYAMDVWGQGTTVTVSS VL: DIQMTQSPSSLSASVGDRVTITCRASQSISSYLNWYQQKPGKAPKLLIYAAYSLQSGVPSRFSGGGSGTDFTLTISSLQPEDFATYFCQQSYSTPITFGQGTRLEIKR", "Not met"),
    ("anti-SARS-CoV-2 antibody 1585 (antibody, V domains shown) VH: QVQLVESGGGVVQPGRSLRLSCAASGFTFSRFTLHWVRQAPGKGLEWVAVISYDGSNKYYADSVKGRFTISRDNSKSTLYLQMNSLRAEDTGVYYCARDPSTVTGYFDYWGQGTLVTVSS VL: SYVLTQPPSVSVAPGKTAKISCGGDSIGSKSVHWYQQKPGQAPVLVIYYDNDRPSGIPERFSGSNSGNTATLTISRVEAGDEADYYCQVWDIGVVFGGGTKLTVLG", "Met"),
    ("anti-SARS-CoV-2 antibody 1404 (antibody, V domains shown) VH: QITLKESGPTLVKPTQTLTLTCTFSGFSLSISGVGVGWLRQPPGKALEWLALIYWDDDKRYSPSLKSRLTISKDTSKNQVVLKMTNIDPVDTATYYCAHHSISTIFDHWGQGTLVTVSS VL: QSALTQPASVSGSPGQSITISCTATSSDVGDYNYVSWYQQHPGKAPKLMIFEVSDRPSGISNRFSGSKSGNTASLTISGLQAEDEADYYCSSYTTSSAVFGGGTKLTVLG", "Met"),
    ("anti-SARS-CoV-2 antibody 896 (antibody, V domains shown) VH: EVQLVESGGGVVQPGGSLRLSCAASGFTFDDYAMHWVRQVPGKGLEWVSLISGDGGSTYYADSVKGRFTISRDNSKNSLYVQMNSLRTEDTALYYCVKDRGGSGWDLNHYYYGMDVWGQGTTVTVSS VL: DIQLTQSPSFLSASVGDRVTVTCRASQGISSYLAWYQQKPGKAPKLLIYAAYTLQSGVPSRFSGSGSETEFTLTISSLQPEDFATYYCQQVKSYPLTFGGGTKVEIKR", "Not met"),
]

As a next step, examine the binder that follows.
Could you tell me if the measured median fluorescence intensity, fold over isotype control of anti-SARS-CoV-2 antibody 1037 (antibody, V domains shown) VH: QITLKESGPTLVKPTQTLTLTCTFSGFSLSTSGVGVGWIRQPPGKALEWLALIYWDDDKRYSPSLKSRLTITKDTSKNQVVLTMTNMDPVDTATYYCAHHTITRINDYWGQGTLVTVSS VL: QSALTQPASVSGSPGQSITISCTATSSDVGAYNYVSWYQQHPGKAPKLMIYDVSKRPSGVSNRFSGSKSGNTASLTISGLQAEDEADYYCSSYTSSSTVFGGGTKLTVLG reaches 0.8 fold over isotype or more? Met
